Taken from ChEMBL document CHEMBL1143770.

Test: Inhibition 2[3H]mannose incorporation into glycoconjugates in lymphoblasts isolated from congenital disorders of glycosylation-Ia patient at 300 uM
Type: functional
Details: Homo sapiens, Lymphoblast
The entries below come with measured inhibition at 300 µM values attached.
Report as a plain number; the unit % is understood.

{"columns": ["compound", "unitText", "inhibition at 300 µM"],
 "data": [
  ["CC(=O)OC[C@H]1O[C@H](OP(=O)(Oc2ccccc2)O[C@H]2O[C@H](COC(C)=O)[C@@H](OC(C)=O)[C@H](OC(C)=O)[C@@H]2OC(C)=O)[C@@H](OC(C)=O)[C@@H](OC(C)=O)[C@@H]1OC(C)=O (single isomer, unassigned)", "%", 26],
  ["CC(=O)OC[C@H]1O[C@H](OP(=O)(Oc2cccc3ccccc23)O[C@H]2O[C@H](COC(C)=O)[C@@H](OC(C)=O)[C@H](OC(C)=O)[C@@H]2OC(C)=O)[C@@H](OC(C)=O)[C@@H](OC(C)=O)[C@@H]1OC(C)=O (single isomer, unassigned)", "%", 56],
  ["CC(C)C(=O)OC[C@H]1O[C@H](OP(=O)(Oc2ccccc2)O[C@H]2O[C@H](COC(=O)C(C)C)[C@@H](OC(=O)C(C)C)[C@H](OC(=O)C(C)C)[C@@H]2OC(=O)C(C)C)[C@@H](OC(=O)C(C)C)[C@@H](OC(=O)C(C)C)[C@@H]1OC(=O)C(C)C (single isomer, unassigned)", "%", 78]
]}

Query: Can you look up the measured inhibition at 300 µM of CCCC(=O)OC[C@H]1O[C@H](OP(=O)(OCc2ccccc2)O[C@H]2O[C@H](COC(=O)CCC)[C@@H](OC(=O)CCC)[C@H](OC(=O)CCC)[C@@H]2OC(=O)CCC)[C@@H](OC(=O)CCC)[C@@H](OC(=O)CCC)[C@@H]1OC(=O)CCC (single isomer, unassigned) for me?
Result: 71
